# Test system: MOLT-4
# method_notes: Cytotoxicity against human MOLT4 cells assessed as effect on cell growth at 10 uM incubated for 48 hrs by sulforhodamine B assay
# Assay type: cell-based
# condition_context: molt-4, 48 h
endpoint_label: Activity

IN: Requested read-out: Activity. Entry: O=C1N[C@H](C(=O)NCc2ccc(Cl)cc2Cl)C/C1=N\O (stereo in doubt)
OUT: Non-Toxic

IN: Requested read-out: Activity. Entry: COc1cc(CN/C=C2\C[C@@H](C(=O)NCc3ccc(Cl)cc3Cl)NC2=O)cc(OC)c1OC
OUT: Non-Toxic

IN: Requested read-out: Activity. Entry: O=C(NCc1ccc(Cl)cc1Cl)[C@@H]1CCC(=O)N1c1cncs1
OUT: Non-Toxic

* * *

# experimental_system: P2X purinoceptor 7 (Homo sapiens) (UniProt Q99572)
# Sequence (Q99572 whole entry): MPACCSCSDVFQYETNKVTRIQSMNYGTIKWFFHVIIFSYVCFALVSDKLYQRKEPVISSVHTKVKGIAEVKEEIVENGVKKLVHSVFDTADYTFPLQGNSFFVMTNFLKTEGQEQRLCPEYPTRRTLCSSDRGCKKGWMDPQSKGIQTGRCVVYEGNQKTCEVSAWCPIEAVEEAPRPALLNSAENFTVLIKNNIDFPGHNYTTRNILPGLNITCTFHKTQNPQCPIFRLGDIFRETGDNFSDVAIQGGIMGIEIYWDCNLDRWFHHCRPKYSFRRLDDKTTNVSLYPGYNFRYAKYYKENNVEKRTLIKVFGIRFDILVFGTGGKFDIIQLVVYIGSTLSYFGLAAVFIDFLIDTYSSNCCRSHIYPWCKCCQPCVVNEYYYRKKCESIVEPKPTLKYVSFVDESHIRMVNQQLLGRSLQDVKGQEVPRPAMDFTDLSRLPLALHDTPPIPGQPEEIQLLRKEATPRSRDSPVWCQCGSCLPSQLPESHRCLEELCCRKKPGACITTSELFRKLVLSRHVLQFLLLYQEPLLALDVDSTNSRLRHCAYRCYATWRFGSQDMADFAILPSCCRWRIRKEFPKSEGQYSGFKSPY
# method_notes: Inhibition of human P2X7 expressed in human HEK293 cells assessed as reduction in BzATP-stimulated TO-PRO-3 incorporation at 10 uM preincubated with compound and TO-PRO-3 for 15 mins prior to BzATP addition and measured after 1 hr by Fluo-3AM dye based flow cytometry relative to control
# Assay type: cell-based
Calls of active or inactive are those of the source. No rule for the calls is given here.
endpoint_label: inhibition

Observe how each entry below is paired with its result.
IN: Provide the documented inhibition with P2X purinoceptor 7 (Homo sapiens) (UniProt Q99572) as the system for O=C1CC[C@@H](C(=O)NCCc2ccccc2)N1
OUT: inactive

IN: Provide the documented inhibition with P2X purinoceptor 7 (Homo sapiens) (UniProt Q99572) as the system for O=C1CC[C@@H](C(=O)NCc2ccncc2)N1
OUT: inactive

IN: Provide the documented inhibition with P2X purinoceptor 7 (Homo sapiens) (UniProt Q99572) as the system for COC(=O)[C@@H]1CCC(=O)N1C(c1ccc(Cl)cc1)c1ccc(Cl)cc1
OUT: inactive

IN: Provide the documented inhibition with P2X purinoceptor 7 (Homo sapiens) (UniProt Q99572) as the system for CN(C)C(=O)[C@@H]1CCC(=O)N1c1ccccc1
OUT: 0%

IN: Provide the documented inhibition with P2X purinoceptor 7 (Homo sapiens) (UniProt Q99572) as the system for O=C(NCc1ccco1)[C@@H]1CCC(=O)N1Cc1ccc(Cl)cc1Cl
OUT: 0%

New cases:
IN: Provide the documented inhibition with P2X purinoceptor 7 (Homo sapiens) (UniProt Q99572) as the system for COc1cc(NC(=O)[C@@H]2CCC(=O)N2)cc(OC)c1OC
OUT: inactive

IN: Provide the documented inhibition with P2X purinoceptor 7 (Homo sapiens) (UniProt Q99572) as the system for COC(=O)[C@@H]1CCC(=O)N1Cc1ccc(OC)cc1
OUT: inactive

IN: Provide the documented inhibition with P2X purinoceptor 7 (Homo sapiens) (UniProt Q99572) as the system for COC(=O)[C@@H]1CCC(=O)N1c1cccs1
OUT: inactive

IN: Provide the documented inhibition with P2X purinoceptor 7 (Homo sapiens) (UniProt Q99572) as the system for O=C(NCc1ccc(Cl)cc1Cl)[C@@H]1CCC(=O)N1c1ccncc1
OUT: 0%

IN: Provide the documented inhibition with P2X purinoceptor 7 (Homo sapiens) (UniProt Q99572) as the system for O=C(Nc1ccc(Cl)cc1Cl)[C@@H]1CCC(=O)N1Cc1ccccc1Cl
OUT: 0%

IN: Provide the documented inhibition with P2X purinoceptor 7 (Homo sapiens) (UniProt Q99572) as the system for COC(=O)[C@@H]1CCC(=O)N1c1ccncc1
OUT: inactive

IN: Provide the documented inhibition with P2X purinoceptor 7 (Homo sapiens) (UniProt Q99572) as the system for COC(=O)[C@@H]1CCC(=O)N1Cc1ccc(C)cc1
OUT: inactive

* * *

# Test system: HCT-116
# method_notes: Cytotoxicity against human HCT116 cells assessed as effect on cell growth at 10 uM incubated for 48 hrs by sulforhodamine B assay
# Type: cell-based
# condition_context: hct-116, 48 h
endpoint_label: Activity

IN: Requested read-out: Activity. Entry: O=C(Nc1ccc(Cl)cc1Cl)[C@@H]1CCC(=O)N1Cc1ccccc1Cl
OUT: Non-Toxic

IN: Requested read-out: Activity. Entry: O=C(NCc1ccc(Cl)cc1Cl)[C@@H]1CCC(=O)N1Cc1ccccc1
OUT: Non-Toxic

IN: Requested read-out: Activity. Entry: O=C1N[C@H](C(=O)NCc2ccc(Cl)cc2Cl)C/C1=C/NCc1ccc(Cl)cc1Cl
OUT: Non-Toxic

* * *

# Test system: SN12C
# method_notes: Cytotoxicity against human SN12C cells assessed as effect on cell growth at 10 uM incubated for 48 hrs by sulforhodamine B assay
# Type: cell-based
endpoint_label: Activity

IN: Provide the documented Activity with SN12C as the system for CN1C(=O)CC[C@H]1C(=O)NCc1cc(C(F)(F)F)ccc1Cl
OUT: Non-Toxic

IN: Provide the documented Activity with SN12C as the system for CCCCCCN1C(=O)[C@@H]2C/C(=C\N(C)C)C(=O)N2C1N(C)C (stereo partly drawn)
OUT: Non-Toxic

IN: Provide the documented Activity with SN12C as the system for O=C(NCc1ccc(Cl)cc1Cl)[C@@H]1CCC(=O)N1c1ccsc1
OUT: Non-Toxic

* * *

# experimental_system: P2X purinoceptor 7 (Homo sapiens) (UniProt Q99572)
# method_notes: Inhibition of human P2X7 expressed in human HEK293 cells assessed as reduction in BzATP-stimulated TO-PRO-3 incorporation at 10 uM preincubated with compound and TO-PRO-3 for 15 mins prior to BzATP addition and measured after 1 hr by Fluo-3AM dye based flow cytometry relative to control
# Format: cell-based
The source made the active and inactive calls. No rule for the calls is given here.
endpoint_label: inhibition

Observe how each entry below is paired with its result.
IN: Requested read-out: inhibition. Entry: Cc1ccc(NC(=O)[C@@H]2CCC(=O)N2c2ccccc2)cc1
OUT: 0%

IN: Requested read-out: inhibition. Entry: O=C1CC[C@@H](C(=O)NCCc2ccc(Cl)cc2Cl)N1
OUT: inactive

IN: Requested read-out: inhibition. Entry: O=C(NCc1ccc(Cl)cc1Cl)[C@@H]1CCC(=O)N1c1ccc(Cl)cc1Cl
OUT: 0%

IN: Requested read-out: inhibition. Entry: COC(=O)[C@@H]1CCC(=O)N1Cc1ccc(Cl)cc1Cl
OUT: inactive

IN: Requested read-out: inhibition. Entry: O=C(NCCc1ccc(Cl)cc1Cl)[C@@H]1CCC(=O)N1c1ccccc1
OUT: 0%

IN: Requested read-out: inhibition. Entry: CN(C)/C=C1\C[C@H]2C(=O)N(/C(=C/N(C)C)c3ccncc3)C(N(C)C)N2C1=O (stereo not given in full)
OUT: 0%

IN: Requested read-out: inhibition. Entry: CN(Cc1ccccc1)C(=O)[C@@H]1CCC(=O)N1Cc1ccc(Cl)cc1Cl
OUT: 0%

IN: Requested read-out: inhibition. Entry: CN(C)/C=C1\C[C@H]2C(=O)N(Cc3ccccc3)C(N(C)C)N2C1=O (stereo not given in full)
OUT: 0%

IN: Requested read-out: inhibition. Entry: COC(=O)[C@@H]1CCC(=O)N1c1cccc2ncccc12
OUT: inactive

// next item, inhibition requested
IN: Requested read-out: inhibition. Entry: O=C(NCc1ccc(Cl)cc1Cl)[C@@H]1CCC(=O)N1C(c1ccccc1)c1ccccc1
OUT: 0%

* * *

# Test system: SK-OV-3
# method_notes: Cytotoxicity against human SKOV3 cells assessed as effect on cell growth at 10 uM incubated for 48 hrs by sulforhodamine B assay
# Assay type: cell-based
# condition_context: sk-ov-3, 48 h
endpoint_label: Activity

Observe how each entry below is paired with its result.
IN: Requested read-out: Activity. Entry: CN(C)/C=C1\C[C@H]2C(=O)N(/C(=C/N(C)C)c3ccncc3)C(N(C)C)N2C1=O (stereo partly specified)
OUT: Non-Toxic

IN: Requested read-out: Activity. Entry: CN1C(=O)CC[C@H]1C(=O)NCc1cccc(C(F)(F)F)c1Cl
OUT: Non-Toxic

IN: Requested read-out: Activity. Entry: CCCCCCN1C(=O)[C@@H]2CCC(=O)N2C1N(C)C (stereo partly specified)
OUT: Non-Toxic

IN: Requested read-out: Activity. Entry: O=C(NCc1ccc(Cl)cc1Cl)[C@@H]1COC(=O)N1c1cccs1
OUT: Non-Toxic

IN: Requested read-out: Activity. Entry: O=C(NCc1ccc(Cl)cc1Cl)[C@@H]1CCC(=O)N1C(c1ccccc1)c1ccccc1
OUT: Non-Toxic

IN: Requested read-out: Activity. Entry: O=C1CCCC(C(=O)NCc2ccc(Cl)cc2Cl)N1 (stereo unspecified)
OUT: Non-Toxic

// next item, Activity requested
IN: Requested read-out: Activity. Entry: COc1ccc(CN2C(=O)CC[C@H]2C(=O)NCCc2ccccc2)cc1
OUT: Non-Toxic

* * *

# Test system: NCI-H23
# method_notes: Cytotoxicity against human NCI-H23 cells assessed as effect on cell growth at 10 uM incubated for 48 hrs by sulforhodamine B assay
# Format: cell-based
# condition_context: nci-h23, 48 h
endpoint_label: Activity

IN: Requested read-out: Activity. Entry: O=C(NCCc1ccccc1)[C@@H]1CCC(=O)N1Cc1ccc(Br)cc1
OUT: Non-Toxic

IN: Requested read-out: Activity. Entry: COc1ccc(CN2C(=O)CC[C@H]2C(=O)NCCc2ccccc2)cc1
OUT: Non-Toxic

IN: Requested read-out: Activity. Entry: COc1ccc(NC(=O)[C@@H]2CCC(=O)N2)cc1OC
OUT: Non-Toxic

// provenance: ChEMBL document CHEMBL4627246
